// each record: one item and its IC50 for COX-2 (Homo sapiens, UniProt P35354)
I only need the number, in µM, no unit after it.

A selection of reference data follows.
# query: IC50 of entry COc1cc(/C=N/C2=C(C#N)C(c3ccc([N+](=O)[O-])cc3)c3c(c4cc(C)ccc4oc3=O)O2)cc(OC)c1OC (racemic)
13.3

Okay, and Cc1ccc2oc(=O)c3c(c2c1)OC(N)=C(C#N)C3c1ccco1 (racemic) ?
4.25

Okay, and Cc1ccc2oc(=O)c(S(=O)(=O)Nc3ccc(S(=O)(=O)Nc4ncccn4)cc3)c(O)c2c1 ?
3.35

Okay, and Cc1ccc2oc(=O)c3c(c2c1)OC(/N=C/N(C)C)=C(C#N)C3c1ccco1 (racemic) ?
25.2

---
# query: IC50 of entry Cc1ccc2oc(=O)c(S(=O)(=O)Nc3ccc(O)cc3)c(O)c2c1
1.86

* * *

Recorded measurements of SI, selectivity index (COX-1/COX-2), one per entry
# TARGET OF ASSAY: COX-2 (Homo sapiens, UniProt P35354)
# Construct: purchased Cayman Chemical 701080
# Sequence (P35354 18-604): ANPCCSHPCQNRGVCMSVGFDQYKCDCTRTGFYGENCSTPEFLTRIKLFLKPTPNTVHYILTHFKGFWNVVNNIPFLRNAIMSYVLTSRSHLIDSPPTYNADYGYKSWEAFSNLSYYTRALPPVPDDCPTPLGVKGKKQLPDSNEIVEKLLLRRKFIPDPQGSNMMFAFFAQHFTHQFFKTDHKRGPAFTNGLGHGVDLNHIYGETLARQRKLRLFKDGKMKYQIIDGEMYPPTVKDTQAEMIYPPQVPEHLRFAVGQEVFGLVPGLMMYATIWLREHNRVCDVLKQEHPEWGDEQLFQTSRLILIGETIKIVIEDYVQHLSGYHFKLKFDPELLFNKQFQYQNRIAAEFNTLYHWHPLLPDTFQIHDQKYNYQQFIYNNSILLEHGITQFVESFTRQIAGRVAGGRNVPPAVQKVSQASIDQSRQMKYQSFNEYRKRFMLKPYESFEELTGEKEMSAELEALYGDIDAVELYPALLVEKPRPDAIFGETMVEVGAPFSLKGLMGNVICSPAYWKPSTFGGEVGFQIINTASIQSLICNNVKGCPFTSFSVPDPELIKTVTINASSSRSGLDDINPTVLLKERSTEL
# TEST NAME: COX-2 inhibition, Cayman assay kit
# Format: biochemical
# CONDITION SUMMARY: ratio of COX-1/COX-2 IC50
Write no unit; give the number alone.

A selection of reference data follows.
# query: SI, selectivity index (COX-1/COX-2) of entry Cc1ccc2oc(=O)c3c(c2c1)OC(N)=C(C(N)=O)C3c1ccco1 (racemic)
3.16

Okay, and O=c1oc2ccc(Cl)cc2c(O)c1S(=O)(=O)Nc1ccccc1 ?
2.94

Okay, and Cc1ccc2oc(=O)c3c(c2c1)OC(/N=C/N(C)C)=C(C#N)C3c1ccc([N+](=O)[O-])cc1 (racemic) ?
1.56

Okay, and Cc1ccc2oc(=O)c3c(c2c1)OC(/N=C/c1ccc(Cl)cc1Cl)=C(C#N)C3c1ccc([N+](=O)[O-])cc1 (racemic) ?
2.52

Okay, and Cc1ccc2oc(=O)c3c(c2c1)OC(/N=C/N(C)C)=C(C#N)C3c1ccco1 (racemic) ?
2.28

Okay, and Cc1ccc2oc(=O)c(S(=O)(=O)Nc3ccc(S(=O)(=O)Nc4ncccn4)cc3)c(O)c2c1 ?
63.96

Okay, and COc1cc(/C=N/C2=C(C#N)C(c3ccc([N+](=O)[O-])cc3)c3c(c4cc(C)ccc4oc3=O)O2)cc(OC)c1OC (racemic) ?
1.39

Okay, and O=c1oc2ccc(Cl)cc2c(O)c1S(=O)(=O)Nc1ccc(S(=O)(=O)Nc2nccs2)cc1 ?
1.84

Okay, and Cc1ccc2oc(=O)c(S(=O)(=O)Nc3ccc(S(=O)(=O)Nc4nccs4)cc3)c(O)c2c1 ?
4.06

Okay, and COc1cc(/C=N/C2=C(C#N)C(c3ccco3)c3c(c4cc(C)ccc4oc3=O)O2)cc(OC)c1OC (racemic) ?
1.7

---
# query: SI, selectivity index (COX-1/COX-2) of entry Cc1ccc2oc(=O)c3c(c2c1)OC(N)=C(C#N)C3c1ccc([N+](=O)[O-])cc1 (racemic)
42.58

Okay, and Cc1ccc2oc(=O)c3c(c2c1)OC(N)=C(C(N)=O)C3c1ccc([N+](=O)[O-])cc1 (racemic) ?
18.68

Okay, and NS(=O)(=O)c1ccc(NS(=O)(=O)c2c(O)c3cc(Cl)ccc3oc2=O)cc1 ?
13.75

Okay, and Cc1ccc2oc(=O)c(S(=O)(=O)Nc3ccc(S(N)(=O)=O)cc3)c(O)c2c1 ?
5.78

Okay, and Cc1ccc2oc(=O)c3c(c2c1)OC(/N=C/c1ccc(Cl)cc1Cl)=C(C#N)C3c1ccco1 (racemic) ?
29.1

Okay, and Cc1ccc2oc(=O)c(S(=O)(=O)Nc3ccccc3)c(O)c2c1 ?
1.94

Okay, and O=c1oc2ccc(Cl)cc2c(O)c1S(=O)(=O)Nc1ccc(S(=O)(=O)Nc2ncccn2)cc1 ?
3.12

# credit: paper PMC7397269
